- assayed target: T1, biotinylated CD32bECDHis (human, UniProt P31994 43-223, limits assumed, biotinylated (sites not given))
- T1 sequence (looked up): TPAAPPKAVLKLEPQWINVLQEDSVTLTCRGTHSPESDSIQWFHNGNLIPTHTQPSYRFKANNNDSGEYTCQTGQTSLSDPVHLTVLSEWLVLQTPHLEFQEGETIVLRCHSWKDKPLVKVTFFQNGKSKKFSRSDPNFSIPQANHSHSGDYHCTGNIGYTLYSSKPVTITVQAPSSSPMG
- experiment notes: competition ELISA, competitor 028
% residual binding reference

[
  {
    "binder": "Antibody 028 (antibody, V domains shown, List 1 gives no VL for antibody 028; The VL is therefore uncertain; also called HuMab 028) VH: QVQVVQSGAEVKKPGASVKVSCKTSGYTFTSYGISWVRQAPGQGLEWMGWISAYNGNTKYAQKLQGRLTMTTDTSTTTAYMELRSLRSDDTAVYYCARDSAAHGMDVWGQGTTVSVSS VL: DIQMTQSPSSLSASVGDRVTITCRASQGISSWLAWYQQKPEKAPKSLIYAASSLQSGVPSRFSGSRSGTDFTLTISSLQPEDFATYYCQQYNSYPYTFGQGTKLEIKR",
    "% residual binding / %": 15
  },
  {
    "binder": "Antibody 038 (antibody, human IgG1, V domains shown, Human antibody; also called HuMab 038) VH: QVQLVESGGGVVQPGRSLRLSCAASGFTFSTYGMHWVRQAPGKGLEWVAVISHDGSDKYYADSVKGRFTISRDNSKNTLYLQMNSLRAEDTAVYYCARDQSIIETFDYWGQGTLVTVSS VL: EIVLTQSPATLSLSPGERATLSCRASQSVSSYLAWYQQKPGQAPRLLIYDASNRATGIPARFSGSGSGTDFTLTISSLEPEDFAVYYCQQRSNWGFTFGPGTKVDIKR",
    "% residual binding / %": 317
  },
  {
    "binder": "Antibody 022 (antibody, V domains shown, also called HuMab 022) VH: QVQLVQSGAEVKKPGASVKVSCKASGYTFTSYGLSWVRQAPGQGLEWMGWISPYNGNTHYAQKLQGRVTMTTDTSTSTADMDLRSLRSDDTAVYYCARASAAHGMDVWGQGTTVTVSS VL: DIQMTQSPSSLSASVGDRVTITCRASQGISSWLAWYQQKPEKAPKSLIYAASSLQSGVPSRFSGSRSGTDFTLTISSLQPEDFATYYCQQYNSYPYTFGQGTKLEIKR",
    "% residual binding / %": 27
  },
  {
    "binder": "Antibody 024 (antibody, V domains shown, also called HuMab 024) VH: QVQLVQSGAEVKKPGASVKVSCKASGYTFTSYGLSWVRQAPGQGLEWMGWISPYNGNTHYAQKLQGRVTMTTDTSTSTAYMDLRSLRSDDTAVYYCARDSAAHGMDVWGQGTTVTVSS VL: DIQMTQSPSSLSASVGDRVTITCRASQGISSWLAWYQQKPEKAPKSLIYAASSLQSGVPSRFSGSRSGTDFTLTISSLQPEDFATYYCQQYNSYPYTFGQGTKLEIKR",
    "% residual binding / %": 34
  },
  {
    "binder": "Antibody 026 (antibody, V domains shown, Human antibody; also called HuMab 026) VH: QVQLVQSGAEVKKPGASVKVSCKASGYTFTSYGLSWVRQAPGQGLEWMGWISAYNGNTNYAQKLQGRVTMTTDTSTSTAYMDLRSLRSDDTAVYYCARDSAAHGMDVWGQGTTVTVSS VL: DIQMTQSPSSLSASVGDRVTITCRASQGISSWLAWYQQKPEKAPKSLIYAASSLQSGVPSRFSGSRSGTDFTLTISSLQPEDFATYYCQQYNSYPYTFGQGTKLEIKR",
    "% residual binding / %": 3
  },
  {
    "binder": "Antibody 063 (antibody, human IgG1, V domains shown, Human antibody; also called HuMab 063) VH: EVQLLESGGGLVQPGGSLRLSCAASGFTFSSYAMSWVRQAPGKGLEWVSAISDSGGSTYYADSVKGRFTISRDNSKNTLYLQMNSLRAEDTAAYYCAKEIAVALFDYWGQGTLVTVSS VL: EIVLTQSPATLSLSPGERATLSCRASQSVSSYLAWYQQKPGQAPRLLIYDASNRATGIPARFSGSGSGTDFTLTISSLEPEDFAVYYCQQRSSWPPYTFGQGTKLEIKR",
    "% residual binding / %": 49
  },
  {
    "binder": "Antibody 053 (antibody, human IgG1, V domains shown, Human antibody; also called HuMab 053) VH: QVQLVESGGGVVQPGRSLRLSCAVSGFTFRSYGMHWVRQAPGKGLEWVAVIWYDGSIKYYADSVKGRFTISRDNSKNTLYLQMNSLRAEDTAVYFCAREGGRDAFDIWGQGTMVTVSS VL: AVQLTQSPSSLSASVGDRVTITCRASQGISSALAWYQQKPGKAPKLLIYDASSLESGVPSRFSGSGSGTDFTLTISSLQPEDFATYCCQQFNSYPHTFGGGTKVEIKR",
    "% residual binding / %": 13
  },
  {
    "binder": "Antibody 020 (antibody, V domains shown, also called HuMab 020) VH: QVQLVQSGGEVKKPGASVKVSCKTSGYTFTSYGISWVRQAPGQGLEWMGWISAYNGNTKYAQKLQGRLTMTTDTSTTTAYMELRSLRSDDTAVYYCARDSAAHGMDVWGQGTTVTVSS VL: DIQMTQSPSSLSASVGDRVTITCRASQGISSWLAWYQQKPEKAPKSLIYAASSLQSGVPSRFRGSGSGTDFTLTISSLQPEDFATYYCQQYNSYPYTFGQGTKLEIKR",
    "% residual binding / %": 13
  }
]
